Data provenance is the supplement of paper PMC10307832.

System: NCI-H838
Assay: relative viability (nuclei count vs DMSO), 5 days (fraction); higher = more cells survive
Conditions: first compound 0.006325 µM
List of relative viability values.
Give your answer as a number; write no unit.

The following compounds have reported results that may help.
CCNC(=O)c1noc(-c2cc(C(C)C)c(O)cc2O)c1-c1ccc(CN2CCOCC2)cc1 [Luminespib] + CC(C)C[C@H](NC(=O)[C@H](Cc1ccccc1)NC(=O)c1cnccn1)B(O)O [Bortezomib] (partner 0.002 µM) : 0.723
CCNC(=O)c1noc(-c2cc(C(C)C)c(O)cc2O)c1-c1ccc(CN2CCOCC2)cc1 [Luminespib] + O=C(CCCCCCC(=O)Nc1ccccc1)NO [Vorinostat] (partner 1 µM) : 0.655
CCNC(=O)c1noc(-c2cc(C(C)C)c(O)cc2O)c1-c1ccc(CN2CCOCC2)cc1 [Luminespib] + CS(=O)(=O)CCNCc1ccc(-c2ccc3ncnc(Nc4ccc(OCc5cccc(F)c5)c(Cl)c4)c3c2)o1 [Lapatinib] (partner 2 µM) : 0.911
CCNC(=O)c1noc(-c2cc(C(C)C)c(O)cc2O)c1-c1ccc(CN2CCOCC2)cc1 [Luminespib] + C[C@@H](Oc1cc(-c2cnn(C3CCNCC3)c2)cnc1N)c1c(Cl)ccc(F)c1Cl [Crizotinib] (partner 1 µM) : 0.78
CCNC(=O)c1noc(-c2cc(C(C)C)c(O)cc2O)c1-c1ccc(CN2CCOCC2)cc1 [Luminespib] + Nc1ncn([C@H]2C[C@H](O)[C@@H](CO)O2)c(=O)n1 [Decitabine] (partner 2 µM) : 0.491

*Q* State the recorded relative viability for this entry: CCNC(=O)c1noc(-c2cc(C(C)C)c(O)cc2O)c1-c1ccc(CN2CCOCC2)cc1 [Luminespib] + NC(=O)Nc1cc(-c2cccc(F)c2)sc1C(=O)N[C@H]1CCCNC1 [AZD7762] (partner 0.2 µM)
*A* 0.89

----------
Tested on: NCI-H1666
Assay: relative viability (nuclei count vs DMSO), 5 days (fraction); higher = more cells survive
Settings: first compound 0.002 µM
Listed here: items and their measured relative viability.
Reply briefly: the number, and no unit.

Worked cases, answers included:
CCNC(=O)c1noc(-c2cc(C(C)C)c(O)cc2O)c1-c1ccc(CN2CCOCC2)cc1 [Luminespib] + COc1cccc2cc(-c3nc([C@H]4CC[C@H](C(=O)O)CC4)n4ncnc(N)c34)[nH]c12 [OSI-027] (partner 0.5 µM) : 0.841
CCNC(=O)c1noc(-c2cc(C(C)C)c(O)cc2O)c1-c1ccc(CN2CCOCC2)cc1 [Luminespib] + CS(=O)(=O)CCNCc1ccc(-c2ccc3ncnc(Nc4ccc(OCc5cccc(F)c5)c(Cl)c4)c3c2)o1 [Lapatinib] (partner 2 µM) : 0.717
CCNC(=O)c1noc(-c2cc(C(C)C)c(O)cc2O)c1-c1ccc(CN2CCOCC2)cc1 [Luminespib] + CS(=O)(=O)N1CCN(Cc2cc3nc(-c4cccc5[nH]ncc45)nc(N4CCOCC4)c3s2)CC1 [Pictilisib] (partner 1 µM) : 0.423

Next:
*Q* Which relative viability value is on record for CCNC(=O)c1noc(-c2cc(C(C)C)c(O)cc2O)c1-c1ccc(CN2CCOCC2)cc1 [Luminespib] + CC(=O)Nc1cccc(-n2c(=O)n(C3CC3)c(=O)c3c(Nc4ccc(I)cc4F)n(C)c(=O)c(C)c32)c1 [Trametinib] (partner 0.02 µM) ?
*A* 0.845
